B1: tRNA (parent)
chain: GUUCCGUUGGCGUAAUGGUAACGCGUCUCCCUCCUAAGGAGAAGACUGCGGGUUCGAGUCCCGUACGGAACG

# Variants of: B1
# test_protocol: yeast fitness relative to wild type (ratio to wild type); higher = fitter; tRNA-Arg(CCU), competitive growth, 37 C, YPD
Fewer inactive variants are shown than the library holds.
Output: class label from yeast fitness. Mapping: zone 1 = under 0.6, zone 2 = from 0.6 up to 0.7, zone 3 = 0.7 and over

>>> cat("U16G C22U C62U")
"zone 2"
>>> cat("C61U A65G")
"zone 3"
>>> cat("C11A A21U U54G A65C")
"zone 1"

Q. Would you mind sorting C22G C27G C31G G48A C61G A69U into the appropriate category?
A. zone 1

Q. Now consider C22U C24G C30G A40U and answer again.
A. zone 1

Q. Now consider A20C A21G A57C and answer again.
A. zone 1

Q. Now consider C5U G56A A65U and answer again.
A. zone 3

Q. Now consider C5U G10A C27G G48C C61G and answer again.
A. zone 1

Q. Now consider G6A C29U A42U A43U C55G and answer again.
A. zone 1

Q. Now consider C24U G51C U53C and answer again.
A. zone 1

Q. Now consider G6C U47A and answer again.
A. zone 3

Q. Now consider C22A C31G and answer again.
A. zone 3

Q. Now consider C24G G50A C55G and answer again.
A. zone 1

Q. Now consider A20U A21C and answer again.
A. zone 2

Q. Now consider U13G G48A and answer again.
A. zone 3

Q. Now consider U7A C29U C31A A65C and answer again.
A. zone 2

Q. Now consider G6A G12A A21G C46A and answer again.
A. zone 2

Q. Now consider U8G A21G C29U U32C and answer again.
A. zone 1
